assay: xn = mol fraction of the nth substance listed, in the solute-free solvent; conditions: 303.15 K; x2 = 0.7
# if value of solubility (g/100 g solution) reaches 2, tag 1; if it stays below, tag 0

Quick check: does S=c1[nH]ncs1 + CCCO + O have solubility (g/100 g solution) greater than or equal to 2?
1

Quick check, solubility (g/100 g solution) >= 2? CC(N)C(=O)O (stereo not given) + O + CC(C)=O
0

Given the entry Cc1ncc(C[n+]2csc(CCO)c2C)c(N)n1.O=[N+]([O-])[O-] + O + CC(C)=O , answer whether its solubility (g/100 g solution) meets or surpasses 2.
1

Say whether S=c1[nH]ncs1 + CC(C)=O + O shows solubility (g/100 g solution) of 2 or more.
1

Threshold query (solubility (g/100 g solution) >= 2) on Cc1ncc(C[n+]2csc(CCO)c2C)c(N)n1.O=[N+]([O-])[O-] + O + CC(C)O
0

Does CCCCCOC(=O)Nc1nc(=O)n(C2OC(C)C(O)C2O)cc1F (stereo not given) + CCOC(C)=O + CCCCCCC have a reported solubility (g/100 g solution) of at least 2?
0

Does CC(N)C(=O)O (stereo not given) + O + CO have a reported solubility (g/100 g solution) of at least 2?
1

Please tell me: is the molecule S=c1[nH]ncs1 + CCO + O at or over 2 in terms of solubility (g/100 g solution)?
1

Evaluate OCCN(CCO)c1nc(N2CCCCC2)c2nc(N(CCO)CCO)nc(N3CCCCC3)c2n1 + CCO + O : solubility (g/100 g solution) at minimum 2?
1

Entry CC(N)C(=O)O (stereo not given) + O + CC(C)O : is its solubility (g/100 g solution) no less than 2?
0

----------
Please provide measured solubility (g/100 g solution) for the entries that follow.
assay: xn = mol fraction of the nth substance listed, in the solute-free solvent; conditions: 318.15 K; x2 = 0.1436
Simply state the number, no unit and no words.

So, CC(C)OC(=O)C(C)NP(=O)(OCC1OC(n2ccc(=O)[nH]c2=O)C(C)(F)C1O)Oc1ccccc1 (centres undefined) + CCO + O ? Its solubility (g/100 g solution) was 21

Summary for this compound, Nc1cccc(S(=O)(=O)c2cccc(N)c2)c1 + CCO + O : solubility (g/100 g solution) is 1.16

Measured solubility (g/100 g solution) of COc1cc2c(cc1OC)-c1cc3ccc(OC)c(OC)c3c[n+]1CC2.[Cl-] + CCO + O : 5.34

So, Cc1[nH]c(=O)c(C#N)cc1-c1ccncc1 + CCO + O ? Its solubility (g/100 g solution) was 0.00377

----------
Assign solubility (g/100 g solution) to each entry below.
assay: xn = mol fraction of the nth substance listed, in the solute-free solvent; settings: 288.15 K; x2 = 0.5
// no unit, no text: just the number

Measured solubility (g/100 g solution), S=c1[nH]ncs1 + CC(C)=O + O : 23.7

Per the records, this molecule ( Cc1ncc(C[n+]2csc(CCO)c2C)c(N)n1.O=[N+]([O-])[O-] + O + CC(C)O ) has solubility (g/100 g solution) equal to 0.305

In plain terms, S=c1[nH]ncs1 + CCCO + O has a documented solubility (g/100 g solution) of 9.9
